system: Escherichia coli IAI1; experiment: growth (OD595) fold change vs plate DMSO controls (fold change (ratio)); higher = more growth; conditions: incubation time: 27 h, anaerobic, 37 °C
Where a name gives a salt, the structure may show the parent alone.
This section presents molecules with their documented growth values.
measured-attribute: growth

1) CC(C(=O)O)c1ccc2c(c1)Cc1cccnc1O2 (stereo not given) [Pranoprofen] (20 µM) : 1.06
2) C[C@@H]1C[C@H]2[C@@H]3C[C@H](F)C4=CC(=O)C=C[C@]4(C)[C@@]3(Cl)[C@@H](O)C[C@]2(C)[C@H]1C(=O)COC(=O)C(C)(C)C [Clocortolone pivalate] (20 µM) : 1.03
3) O=C(O)[C@H]1/C(=C/CO)O[C@@H]2CC(=O)N21 [Clavulanate potassium salt] (20 µM) : 1.01
4) Nc1c2ccccc2nc2ccccc12 [Aminacrine] (20 µM) : 1.11
5) CC(CN1c2ccccc2Sc2ccccc21)N(C)C (stereo not given) [Promethazine hydrochloride] (20 µM) : 0.819
6) CCCOc1ccc2[nH]c(NC(=O)OC)nc2c1 [Oxibendazol] (20 µM) : 0.999
7) COC(=O)C1=C(C)NC(C)=C(C(=O)OCC(C)C)C1c1ccccc1[N+](=O)[O-] (stereo not given) [Nisoldipine] (20 µM) : 1.13
8) COc1ccccc1OCCNCC(O)COc1cccc2[nH]c3ccccc3c12 (stereo not given) [Carvedilol] (20 µM) : 0.974
9) CC(C)(C)NC(=O)[C@@H]1C[C@@H]2CCCC[C@@H]2CN1C[C@@H](O)[C@H](Cc1ccccc1)NC(=O)[C@H](CC(N)=O)NC(=O)c1ccc2ccccc2n1 [Saquinavir mesylate] (20 µM) : 1.1
10) CC(=O)O[C@]1(C(C)=O)CC[C@H]2[C@@H]3C=C(C)C4=CC(=O)CC[C@]4(C)[C@H]3CC[C@@]21C [Megestrol acetate] (20 µM) : 1.1
11) C#C[C@]1(O)CC[C@H]2[C@@H]3CCC4=CCCC[C@@H]4[C@H]3CC[C@@]21C [Lynestrenol] (20 µM) : 1.17
12) Cn1nnnc1SCC1=C(C(=O)O)N2C(=O)[C@@H](NC(=O)[C@H](O)c3ccccc3)[C@H]2SC1 [Cefamandole sodium salt] (20 µM) : 0.0343
13) NCc1ccccc1CC(=O)N[C@@H]1C(=O)N2C(C(=O)O)=C(CSc3nnnn3CC(=O)O)CS[C@H]12 [Ceforanide] (20 µM) : 1.11
14) CCCSS/C(CCO)=C(/C)N(C=O)Cc1cnc(C)nc1N [Prosultiamine] (20 µM) : 1.01
15) CCCCC[C@H](O)/C=C/[C@H]1[C@H](O)CC(=O)[C@@H]1CCCCCCC(=O)O [Alprostadil] (20 µM) : 0.977

Data origin, for the record: the supplement of paper PMC12494721
